protocol notes: Metabolic stability in human liver microsomes (HLM)
run conditions: human, HLM CLint, n = 1 or average of n = 2-3
So basically: is microsomal CLint under 100 µL/min/mg? Then Met. Not under? Then Not met.

INPUT: Quick check: does C[C@H]1CC(F)(F)CCN1c1ccc2nccc(C(=O)NCC(=O)N3CSC[C@H]3C#N)c2c1 (mixture of isomers) have microsomal CLint under 100 µL/min/mg?
OUTPUT: Not met

INPUT: hey, is microsomal CLint for N#C[C@@H]1CSCN1C(=O)CNC(=O)c1ccnc2ccc(-n3cc4c(n3)CCCC4)cc12 lower than 100 µL/min/mg or not?
OUTPUT: Not met

INPUT: Find out if reported microsomal CLint for C[C@@H]1CN(c2ccc3nccc(C(=O)NCC(=O)N4CSC[C@H]4C#N)c3c2)CCO1 is less than 100 µL/min/mg
OUTPUT: Met

INPUT: Check if microsomal CLint falls below 100 µL/min/mg for CC1(CC(F)F)CN(c2ccc3nccc(C(=O)NCC(=O)N4CSC[C@H]4C#N)c3c2)C1 .
OUTPUT: Met

INPUT: Bench note: check whether Cc1cccc(C2CN(c3ccc4nccc(C(=O)NCC(=O)N5CSC[C@H]5C#N)c4c3)C2)c1 shows microsomal CLint below 100 µL/min/mg
OUTPUT: Met

INPUT: Take the compound N#C[C@@H]1CSCN1C(=O)CNC(=O)c1ccnc2ccc(N3C[C@@H]4[C@H](C3)[C@H]4C(F)(F)F)cc12 and say whether its microsomal CLint is less than 100 µL/min/mg.
OUTPUT: Met

INPUT: Given the entry COC1CN(c2ccc3nccc(C(=O)NCC(=O)N4CSC[C@H]4C#N)c3c2)C1 , would its reported microsomal CLint be below 100 µL/min/mg?
OUTPUT: Met

INPUT: Could you please tell me whether microsomal CLint recorded for N#C[C@@H]1CSCN1C(=O)CNC(=O)c1ccnc2ccc(N3C4CCC3COC4)cc12 is less than 100 µL/min/mg?
OUTPUT: Met

INPUT: Please indicate whether the reported microsomal CLint of N#C[C@@H]1CSCN1C(=O)CNC(=O)c1ccnc2ccc(N3C[C@@H]4CC[C@H]3C4)cc12 (mixture of isomers) is strictly below 100 µL/min/mg.
OUTPUT: Not met

INPUT: microsomal CLint strictly < 100 µL/min/mg for this compound? C[C@H]1COCCCN1c1ccc2nccc(C(=O)NCC(=O)N3CSC[C@H]3C#N)c2c1
OUTPUT: Not met

INPUT: Is it true that microsomal CLint reported for C[C@H]1CCCN1c1ccc2nccc(C(=O)NCC(=O)N3CSC[C@H]3C#N)c2c1 is less than 100 µL/min/mg?
OUTPUT: Not met

INPUT: Does this compound meet the criterion microsomal CLint < 100 µL/min/mg? N#C[C@@H]1CSCN1C(=O)CNC(=O)c1ccnc2ccc(N3CC(CC(F)F)C3)cc12
OUTPUT: Met

INPUT: Criterion: microsomal CLint strictly below 100 µL/min/mg. Is it met by CO[C@H]1CCN(c2ccc3nccc(C(=O)NCC(=O)N4CSC[C@H]4C#N)c3c2)C1 ?
OUTPUT: Met

INPUT: In the record for CC1(O)CN(c2ccc3nccc(C(=O)NCC(=O)N4CSC[C@H]4C#N)c3c2)C1 , is microsomal CLint less than 100 µL/min/mg?
OUTPUT: Met
